Method notes: Plasma pharmacokinetics of i.v. paclitaxel 175 mg/m2 as 3-hour infusion in cancer patients (limited sampling model)
Type: in vivo, human
Run conditions: human, plasma, iv, 175 mg/m2, mean AUC of paclitaxel, i.v. paclitaxel 175 mg/m2, 3-hour infusion; mean ± SD
Observable: AUC (µM·h)
Give the value, in units of µM·h, as a plain number.

Problem: Need AUC of CC(=O)O[C@H]1C(=O)[C@@]2(C)[C@H]([C@H](OC(=O)c3ccccc3)[C@]3(O)C[C@H](OC(=O)[C@H](O)[C@@H](NC(=O)c4ccccc4)c4ccccc4)C(C)=C1C3(C)C)[C@]1(OC(C)=O)CO[C@@H]1C[C@@H]2O , thanks.
Solution: 15.9
